For each of the molecules below, state its GI50.
Tested on: NCI-H226
Method Notes: NCI tumour cell line growth inhibition, 48 h
Calls of active or inactive are those of the source. No stated cut-off is given here; in the data, active = GI50 up to about 1.1 µM and inactive = higher. Residues, ends and D or L forms follow the SMILES beside them. *: point of attachment. Boc = CC(C)(C)OC(=O)*; Bz = O=C(c1ccccc1)*

Provide the documented GI50 with NCI-H226 as the system for C[n+]1cn(-c2nc3ccccc3nc2[N-]S(=O)(=O)c2ccccc2)c2ccccc21
> 100 µM (inactive)

Another: CC(NC(=O)C(Cc1ccc(OC(=O)c2ccccc2)cc1)NC(=O)OC(C)(C)C)C(=O)NC(Cc1ccccc1)C(=O)NCC(N)=O (stereo unspecified) (Boc-Y(Bz)AFG-NH2; configuration not given here)
20.9 µM (inactive)

# repeat for COC(OC)(c1ccccc1)C(Br)Br
> 100 µM (inactive)

Next: O=C1CS(=O)(=O)C(c2cccc(Oc3ccccc3)c2)N1c1ccccc1 (stereo unspecified)
21.4 µM (inactive)

Item: Cc1ccc(C2=Nn3c(nc4sc(C)c(C)c4c3=O)SC2)cc1
> 100 µM (inactive)

Same question for CCCCNC(=NC#N)NCCCC please.
> 100 µM (inactive)
